src = ChEMBL document CHEMBL1201862

GI50 for assorted compounds
- Test system: DU-145
- ASSAY SUMMARY: NCI tumour cell line growth inhibition, 48 h
The source made the active and inactive calls. Cut-off read from the data, not from the text of the source: active = GI50 up to about 1.1 µM and inactive = higher.

Some compounds with recorded GI50:
COC(=O)/C(=N\Nc1nnc(C)n1N)C(C#N)c1ccccc1 (stereo not given); > 100 µM (inactive)
CC(C)(Cl)C(Br)CCC(C)(Cl)C(Br)CBr (stereo not given); 29 µM (inactive)
CC1OC(OC2C(O[C@H]3CC[C@@]4(C)C(=CC[C@H]5[C@@H]6C[C@@H]7O[C@]8(CC[C@H](C)CN8)[C@@H](C)[C@@H]7[C@@]6(C)CC[C@@H]54)C3)OC(CO)C(O)C2OC2OC(CO)C(O)C(O)C2O)C(O)C(O)C1O (stereo not given in full); 19.4 µM (inactive)

Input "Oc1ccc(-c2cn3cc(C(F)(F)F)ccc3n2)cc1" . Output GI50: 30.6 µM (inactive)

Input COc1ccc2cc1Oc1ccc(cc1)CC1c3cc(OC)c(cc3CCN1C)Oc1c(OC)c(OC)cc3c1C(C2)N(C)CC3 (stereo not given) . Output GI50: 12.6 µM (inactive)

----------
GI50 for assorted compounds
- System: SK-MEL-2
- ASSAY SUMMARY: NCI tumour cell line growth inhibition, 48 h
Calls of active or inactive are those of the source. Rule as the data show it: active = GI50 up to about 1.1 µM and inactive = higher.

O=C(c1ccccc1)N1CCN(C(=S)N(C(=O)c2ccccc2)c2ccccc2)C1=S; 7.41 µM (inactive)
CC1=C(C(=O)Nc2ccccc2)C(c2ccc(C3C(C(=O)Nc4ccccc4)=C(C)NC(C)=C3C(=O)Nc3ccccc3)cc2)C(C(=O)Nc2ccccc2)=C(C)N1; 2.07 µM (inactive)
CC1(C)C/C(=N/O)c2c(nc3ccc4ccccc4c3c2-c2ccc(Cl)cc2)C1; 43.7 µM (inactive)
CCOc1ccc(/C=C2\NC(=S)N(/C=C3\C(=O)Oc4ccccc4C3=O)C2=O)cc1; 17.3 µM (inactive)
CC(C(=O)O)C(C)(O)C(=O)O (stereo not given); > 100 µM (inactive)

Input CCOC(=O)C(NC(=O)CC)(Nc1ccc(S(=O)(=O)Nc2ccc(OC)nn2)cc1)C(F)(F)F (stereo not given) . Output GI50: > 100 µM (inactive)

Input O=c1[nH]c(=O)n(C2C(CO)OC(CO)C2O)cc1F (stereo not given) . Output GI50: > 100 µM (inactive)

Input "Nc1nc(N)c2cc(S(=O)(=O)c3ccc4ccccc4c3)ccc2n1" . Output GI50: 43.4 µM (inactive)

Input "CCN(CC)c1ccc(/N=N/c2ccc(-c3nc4cccnc4o3)cc2)cc1" . Output GI50: > 100 µM (inactive)

Input COc1ccccc1OCC(COC(=O)Nc1ccccc1)OC(=O)Nc1ccccc1 (stereo not given) . Output GI50: 23.1 µM (inactive)

----------
- Test system: SF-295
- ASSAY SUMMARY: NCI tumour cell line growth inhibition, 48 h
Calls of active or inactive are those of the source. Cut-off read from the data, not from the text of the source: active = GI50 up to about 1.1 µM and inactive = higher.
Please state which outcome applies, choosing from TRUE (active), FALSE (inactive)

c1ccc(/N=C2\SC(=NNc3ccccc3)S\C2=N/c2ccccc2)cc1; FALSE

Call for entry N#Cc1cc2c(n(C3OC(CO)C(O)C(O)C3O)c1=S)CCC2 (stereo not given) :
FALSE

Call for entry "COc1cc(C(=O)c2cocc2C(=O)c2ccc3c(c2)OCO3)cc(OC)c1OC" :
TRUE

Call for entry O=C(C#Cc1ccccc1)N1c2ccccc2CC1c1c[nH]c2ccccc12 (stereo not given) :
FALSE

----------
- System: UO-31
- ASSAY SUMMARY: NCI tumour cell line growth inhibition, 48 h
Calls of active or inactive are those of the source. No stated cut-off is given here; in the data, active = GI50 up to about 1.1 µM and inactive = higher.
Please state which outcome applies, choosing from yes (1) for active, no (0) for inactive

A selection of reference data follows.
COC(=O)[C@@H]1C[C@@H]2c3ccccc3N(S(=O)(=O)c3ccccc3)[C@@H]2N1C(=O)OC; no (0)
Cc1c(O)c(C)c2c(C)cn(C(=O)C(C)(C)C)c2c1C; no (0)
CCn1c2ccc(C(=O)CCCN(C)C)cc2c2cc(C(=O)CCCN(C)C)ccc21; no (0)

Call for entry COc1ccc2cc1Oc1ccc(cc1)CC1c3cc(OC)c(cc3CCN1C)Oc1c(OC)c(OC)cc3c1C(C2)N(C)CC3 (stereo not given) :
no (0)

Call for entry "Cc1ccc(N2CCc3c(C)c(C#N)c4nc5ccccc5n4c32)cc1" :
no (0)

Call for entry COC1CC(O[C@H]2CC[C@@]3(C)C(=CCC4(O)C3CCC35C(=O)OC6(C)O[C@@]43CCC65)C2)OC(C)C1O (stereo not given in full) :
no (0)

Call for entry CCOC(=O)C1C(c2ccc(OC)cc2)c2c(n[nH]c2O)CC1(O)OCC (stereo not given) :
no (0)

Call for entry "O=C1Nc2cccc3ncn(c23)C2=C1CCCC2" :
no (0)

Call for entry CN1C2CCC1CC(CC(=O)NC(c1ccc(F)cc1)c1ccc(F)cc1)C2 (stereo not given) :
no (0)

Call for entry "S=c1ssc2c3ssc(=S)c3n(Cc3ccccc3)c12" :
no (0)

Call for entry "CSc1c(C#N)c2n(c3ccccc3[n+]2C)c2ncccc12" :
no (0)

Call for entry "O=C1/C(=C/c2ccc(O)cc2)CCc2ccc([N+](=O)[O-])cc21" :
no (0)

Call for entry OCC1C(OCc2ccccc2)C(OCc2ccccc2)C(OCc2ccccc2)CN1Cc1ccccc1 (stereo not given) :
no (0)

Call for entry "COC(=O)/C=C/CC(=O)NS(C)(=O)=O" :
no (0)

Call for entry CC1CCCCN1CC(=O)c1ccc2c(c1)Sc1ccccc1O2 (stereo not given) :
no (0)

Call for entry Nc1ncc2c(n1)-c1ccccc1OC2NC1CC1 (stereo not given) :
no (0)

Call for entry CCCN1C(=O)/C(=C(/O)C(=O)OCC)C(c2ccc(OC)c(OC)c2)C1=O (stereo not given) :
no (0)

Call for entry "Nc1nc(Cl)cc(NCCC2(CO)CCC2)n1" :
no (0)

Call for entry "NC(=O)C(=CNC(=S)Nc1cccc(C(F)(F)F)c1)C(N)=O" :
no (0)

Call for entry "Nc1ccc(/N=N/c2ccc(-c3ccc(/N=N/c4c(S(=O)(=O)O)cc5cc(S(=O)(=O)O)c(/N=N/c6ccc([N+](=O)[O-])cc6)c(N)c5c4O)cc3)cc2)c2cc(S(=O)(=O)O)ccc12" :
no (0)

----------
GI50 for assorted compounds
- Tested on: SF-268
- ASSAY SUMMARY: NCI tumour cell line growth inhibition, 48 h
Active and inactive are the calls of the source. Cut-off read from the data, not from the text of the source: active = GI50 up to about 1.1 µM and inactive = higher.

Input "COC(=O)c1cc2c(n1S(=O)(=O)c1ccc(C)cc1)C(=O)C(=O)c1[nH]cc(C(=O)OCc3ccccc3)c1-2" . Output GI50: 0.221 µM (active)

Input CC1C(c2ccccc2)O[B-](F)(c2ccccc2)[NH+]1C (stereo not given) . Output GI50: > 100 µM (inactive)

Input COC(=O)c1ccccc1C1CN=NC12Cc1c(ccc3c1CCC3)C2=O (stereo not given) . Output GI50: > 100 µM (inactive)

Input "C=CCNC1=C2C[C@@H](C)C[C@@H](OC)[C@H](OC(=O)CCN(C)C)[C@H](C)/C=C(\C)[C@@H](OC(N)=O)[C@H](OC)/C=C\C=C(/C)C(=O)NC(=CC1=O)C2=O" . Output GI50: 1.35 µM (inactive)

Input "Cc1cc(NS(=O)(=O)c2ccc(NC(=O)c3ccc4nc5ccccc5c(Nc5ccc(S(N)(=O)=O)cc5)c4c3)cc2)no1" . Output GI50: 30.5 µM (inactive)

Input COC1CC(O[C@H]2CC[C@@]3(C)C(=CCC4(O)C3CCC35C(=O)OC6(C)O[C@@]43CCC65)C2)OC(C)C1O (stereo not given in full) . Output GI50: > 100 µM (inactive)

Input CC1CCC(O)(C(C)(C(=O)O)c2ccccc2)CC1 (stereo not given) . Output GI50: > 100 µM (inactive)

Input "CCOC(=O)N1c2ccccc2S(=O)(=O)c2ccccc21" . Output GI50: > 100 µM (inactive)

Input COc1ccc(C2(O)C(S(=O)(=O)c3ccc(C)cc3)=Cc3ccc(OC)cc32)cc1 (stereo not given) . Output GI50: 31.6 µM (inactive)

Input "CC(=N/NC(=S)N1CCCCC1)/C(C)=N\NC(=S)N1CCCCC1" . Output GI50: 1.67 µM (inactive)

Input COc1cc(S(=O)(=O)Nc2ccc(-c3csc(N4C(=O)C(C)SC4c4ccccc4O)n3)cc2)ccc1Cl (stereo not given) . Output GI50: 21.3 µM (inactive)

Input "O=C(Nc1ccc(Cl)cc1)C(=O)C1=C(O)c2ccccc2OC1" . Output GI50: > 100 µM (inactive)

Input CC(C)(C)OC(=O)NCCCCC(NC(=O)OCc1ccccc1)C(N)=O (stereo not given) . Output GI50: > 100 µM (inactive)

Input "O=C(Nc1sccc1S(=O)(=O)c1ccc(Cl)cc1)C(F)(F)F" . Output GI50: 17.5 µM (inactive)

Input "C/N=c1/ss/c(=N\C(SC)=[N+](C)C)n1C.[O-][Cl+3]([O-])([O-])[O-]" . Output GI50: > 100 µM (inactive)

Input "CC1(C)C/C(=N/O)c2c(nc3ccc4ccccc4c3c2-c2ccc(Cl)cc2)C1" . Output GI50: 14.2 µM (inactive)

Input "COc1ccc(CCCCNCc2cccc(CNCCCCc3ccc(OC)cc3)c2)cc1" . Output GI50: 1.76 µM (inactive)

Input "C=C(C)[C@@]1(O)O[C@H]2C[C@@]3(C)OC(=CC3=O)/C(C)=C\[C@@H]3OC(=O)[C@@]1(C)[C@H]32" . Output GI50: 23 µM (inactive)
